Where these numbers come from: patent US20250179155A1

Catalogue of EC50 (nM), TcdB neutralization, Vero cells values
# studySystem: full-length TcdB (TcdB1-2366), VPI10463 (Clostridioides difficile strain VPI10463, UniProt P18177 1-2366)
# Sequence (P18177 whole entry): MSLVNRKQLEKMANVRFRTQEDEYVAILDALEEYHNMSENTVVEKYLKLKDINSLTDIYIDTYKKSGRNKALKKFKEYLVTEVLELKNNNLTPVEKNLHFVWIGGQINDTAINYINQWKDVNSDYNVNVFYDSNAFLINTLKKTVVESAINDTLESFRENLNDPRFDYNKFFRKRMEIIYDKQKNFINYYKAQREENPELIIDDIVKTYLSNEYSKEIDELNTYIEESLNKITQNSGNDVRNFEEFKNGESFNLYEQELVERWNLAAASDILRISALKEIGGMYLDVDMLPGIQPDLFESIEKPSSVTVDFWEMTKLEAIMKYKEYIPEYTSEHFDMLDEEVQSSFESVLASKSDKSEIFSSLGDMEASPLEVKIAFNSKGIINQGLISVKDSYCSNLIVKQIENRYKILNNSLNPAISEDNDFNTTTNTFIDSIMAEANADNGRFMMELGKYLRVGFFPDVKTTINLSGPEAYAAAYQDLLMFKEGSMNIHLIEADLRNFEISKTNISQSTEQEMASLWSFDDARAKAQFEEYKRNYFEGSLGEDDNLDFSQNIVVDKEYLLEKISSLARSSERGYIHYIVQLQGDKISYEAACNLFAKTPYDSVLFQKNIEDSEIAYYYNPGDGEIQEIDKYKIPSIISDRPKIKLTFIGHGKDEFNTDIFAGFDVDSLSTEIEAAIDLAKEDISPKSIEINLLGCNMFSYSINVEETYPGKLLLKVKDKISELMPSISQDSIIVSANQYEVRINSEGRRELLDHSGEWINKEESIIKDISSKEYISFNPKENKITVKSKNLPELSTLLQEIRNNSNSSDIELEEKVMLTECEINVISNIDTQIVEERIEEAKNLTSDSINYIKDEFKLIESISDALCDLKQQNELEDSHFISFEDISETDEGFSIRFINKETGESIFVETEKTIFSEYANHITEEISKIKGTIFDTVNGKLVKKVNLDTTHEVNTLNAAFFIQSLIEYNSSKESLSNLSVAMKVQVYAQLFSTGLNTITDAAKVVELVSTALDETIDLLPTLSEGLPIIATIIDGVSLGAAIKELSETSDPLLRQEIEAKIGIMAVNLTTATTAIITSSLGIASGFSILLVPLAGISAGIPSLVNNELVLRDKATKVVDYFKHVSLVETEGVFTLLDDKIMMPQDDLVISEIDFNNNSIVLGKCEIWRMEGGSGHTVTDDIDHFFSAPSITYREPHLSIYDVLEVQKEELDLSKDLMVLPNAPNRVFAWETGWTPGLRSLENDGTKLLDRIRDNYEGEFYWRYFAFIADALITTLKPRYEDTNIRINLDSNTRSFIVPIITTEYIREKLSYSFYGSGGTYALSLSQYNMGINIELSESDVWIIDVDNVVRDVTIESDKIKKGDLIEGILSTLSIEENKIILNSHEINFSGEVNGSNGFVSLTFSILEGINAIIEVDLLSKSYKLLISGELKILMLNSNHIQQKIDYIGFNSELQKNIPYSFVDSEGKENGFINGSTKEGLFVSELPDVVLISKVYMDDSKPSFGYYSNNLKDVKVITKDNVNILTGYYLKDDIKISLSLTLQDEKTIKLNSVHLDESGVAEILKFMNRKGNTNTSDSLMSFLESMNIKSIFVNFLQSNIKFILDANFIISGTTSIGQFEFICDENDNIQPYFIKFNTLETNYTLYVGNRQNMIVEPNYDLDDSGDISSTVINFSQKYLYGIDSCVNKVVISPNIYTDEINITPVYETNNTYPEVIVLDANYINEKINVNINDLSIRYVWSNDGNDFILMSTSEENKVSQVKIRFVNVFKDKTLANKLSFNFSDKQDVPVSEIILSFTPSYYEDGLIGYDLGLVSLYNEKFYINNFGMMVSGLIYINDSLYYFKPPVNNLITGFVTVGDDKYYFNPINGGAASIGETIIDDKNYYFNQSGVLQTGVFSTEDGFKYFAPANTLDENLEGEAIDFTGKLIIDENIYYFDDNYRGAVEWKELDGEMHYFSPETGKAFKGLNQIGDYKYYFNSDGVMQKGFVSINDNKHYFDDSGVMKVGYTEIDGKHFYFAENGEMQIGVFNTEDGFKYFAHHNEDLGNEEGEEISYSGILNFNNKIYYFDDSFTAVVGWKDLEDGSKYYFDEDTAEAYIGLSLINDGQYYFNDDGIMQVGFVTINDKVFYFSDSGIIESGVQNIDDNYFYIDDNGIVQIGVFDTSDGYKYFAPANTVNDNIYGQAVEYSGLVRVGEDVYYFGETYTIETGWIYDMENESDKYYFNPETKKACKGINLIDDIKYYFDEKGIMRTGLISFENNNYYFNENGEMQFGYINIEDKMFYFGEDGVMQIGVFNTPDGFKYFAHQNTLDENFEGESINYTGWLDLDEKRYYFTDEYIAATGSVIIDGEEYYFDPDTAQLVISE
# methodDescription: cell-based or functional assay
Please state the figure in nM; there is no need to write the unit.

Item: B1E7 (VHH) VHH: QVQLQESGGGLVQPGGSLRLSCAASGSLRSGYVMSWHRQAPGKQRELVASITTGDITQYGASVKGRFTISRDETKNMGWLQMNSLLPEDTAVYYCKITELPTVSVYWGQGTQVTVSS | EC50 (nM), TcdB neutralization, Vero cells: 10

Item: B0B11 (VHH) VHH: QVQLQESGGGLVQPGGSLRLSCATSGFYFPNYAMSWHRQAPGQERELVARITSAGGSTDYADSVKGRFTISRDNSKNTVYLQMNGLISEDTAVYYCNADPSYGTRYWGQGTQVTVSS | EC50 (nM), TcdB neutralization, Vero cells: 350
